target: recombinant human CCR5 receptor (Homo sapiens, UniProt P51681); assay: in vitro radioligand binding assay: inhibition of binding of iodinated MIP-1α (scintillation proximity); details: displacement of iodinated MIP-1α from membranes of Chinese hamster ovary cells expressing recombinant human CCR5; negative log10 of IC50; average if tested more than once
Sequence (P51681 whole entry): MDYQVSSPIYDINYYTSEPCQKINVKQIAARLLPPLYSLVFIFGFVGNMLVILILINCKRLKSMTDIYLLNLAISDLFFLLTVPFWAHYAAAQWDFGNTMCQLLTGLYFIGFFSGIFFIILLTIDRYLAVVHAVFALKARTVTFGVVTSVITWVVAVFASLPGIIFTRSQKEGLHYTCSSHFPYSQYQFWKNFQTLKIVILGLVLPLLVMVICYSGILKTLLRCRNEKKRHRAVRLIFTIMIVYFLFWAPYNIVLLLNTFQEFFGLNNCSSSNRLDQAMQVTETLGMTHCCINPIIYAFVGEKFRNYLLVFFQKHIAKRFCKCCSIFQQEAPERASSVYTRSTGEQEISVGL
parameter_measured: IC50 (nM)

CCN(C(=O)NCC1CCN(S(C)(=O)=O)CC1)C1CCN(CC[C@H](c2ccc(S(C)(=O)=O)cc2)c2cc(F)cc(F)c2)CC1 [Compound 1 Table IV]    0.316

I: CCN(C(=O)CC1CCOCC1)C1CCN(CC[C@H](c2ccc(S(C)(=O)=O)cc2)c2cc(F)cc(F)c2)CC1 [Compound 2 Table III]
II: C=CCN(C(=O)CC1CCN(S(C)(=O)=O)CC1)C1CCN(CC[C@@H](c2cc(F)cc(F)c2)C2CCN(S(C)(=O)=O)CC2)CC1 [Compound 7 Table I]
III: CCN(C(=O)CC1CCN(S(C)(=O)=O)CC1)C1CCN(CC[C@H](c2ccc(S(C)(=O)=O)cc2)c2cc(F)cc(F)c2)CC1 [Compound 1 Table III]
IV: CCN(C(=O)CN1CCN(S(C)(=O)=O)CC1)C1CCN(CC[C@@H](c2cc(F)cc(F)c2)C2CCN(S(C)(=O)=O)CC2)CC1 [Compound 5 Table I]
Please list these molecules in decreasing order of IC50. # list labels per requested ordering I, IV, III, II
